TESTED_TARGET: PI3Kγ (Homo sapiens (Human))
Sequence (P48736 whole entry, canonical isoform): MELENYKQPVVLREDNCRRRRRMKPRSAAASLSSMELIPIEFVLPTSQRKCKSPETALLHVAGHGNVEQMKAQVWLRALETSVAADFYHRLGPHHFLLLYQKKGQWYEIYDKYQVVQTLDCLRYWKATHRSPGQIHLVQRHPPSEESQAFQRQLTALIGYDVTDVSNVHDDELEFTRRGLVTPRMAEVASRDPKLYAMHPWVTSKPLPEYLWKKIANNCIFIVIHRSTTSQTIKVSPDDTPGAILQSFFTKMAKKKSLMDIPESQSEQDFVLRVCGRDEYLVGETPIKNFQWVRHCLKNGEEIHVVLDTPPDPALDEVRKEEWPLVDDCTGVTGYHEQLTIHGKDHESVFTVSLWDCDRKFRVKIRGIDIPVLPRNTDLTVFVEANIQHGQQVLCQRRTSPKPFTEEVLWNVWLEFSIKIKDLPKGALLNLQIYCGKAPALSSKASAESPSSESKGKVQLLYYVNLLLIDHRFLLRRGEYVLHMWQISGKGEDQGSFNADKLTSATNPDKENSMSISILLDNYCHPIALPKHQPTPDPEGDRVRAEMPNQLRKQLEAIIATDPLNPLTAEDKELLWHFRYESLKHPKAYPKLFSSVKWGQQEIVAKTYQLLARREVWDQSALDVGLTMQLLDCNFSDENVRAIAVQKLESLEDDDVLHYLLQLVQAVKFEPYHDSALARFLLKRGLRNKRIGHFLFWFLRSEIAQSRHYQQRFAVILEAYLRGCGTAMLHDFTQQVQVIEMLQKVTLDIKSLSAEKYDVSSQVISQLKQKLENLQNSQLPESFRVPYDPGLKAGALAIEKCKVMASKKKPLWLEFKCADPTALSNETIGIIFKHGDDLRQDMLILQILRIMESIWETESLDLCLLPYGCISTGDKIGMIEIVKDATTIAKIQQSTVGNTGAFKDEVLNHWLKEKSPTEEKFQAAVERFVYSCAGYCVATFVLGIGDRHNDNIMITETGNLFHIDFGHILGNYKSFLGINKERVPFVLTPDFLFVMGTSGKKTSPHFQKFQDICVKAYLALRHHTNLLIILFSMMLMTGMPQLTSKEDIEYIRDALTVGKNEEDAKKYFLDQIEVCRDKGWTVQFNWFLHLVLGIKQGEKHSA
TEST_SUMMARY: TR-FRET enzymatic assay of PI3K isoforms, PI3Kγ
Format: biochemical
EXPERIMENTAL_CONDITIONS: 2×Km ATP, PI3Kγ at 2 nM, 30 minutes at 25° C.
pIC50: −log10 of the molar value.
Returns Y if the recorded pIC50 is greater than or equal to 6, and N otherwise.

ITEM_SMILES: C[C@H](Nc1nc(N)nc(N)c1C#N)c1nc2c(Cl)cc(F)cc2c(=O)n1-c1cnc(N)cn1
GROUP_LABEL: N
//
ITEM_SMILES: C[C@H](Nc1nc(N)nc(N)c1Cl)c1nc2cccc(Cl)c2c(=O)n1-c1cnc(N)cn1
GROUP_LABEL: N
//
ITEM_SMILES: Nc1cnc(-n2c([C@@H](Nc3nc(N)nc(N)c3Cl)C3CC3)nc3c(Cl)ccc(Cl)c3c2=O)cn1
GROUP_LABEL: N
//
ITEM_SMILES: C[C@H](Nc1nc(N)nc(N)c1C#N)c1nc2c(F)ccc(Cl)c2c(=O)n1-c1cnc(N)cn1
GROUP_LABEL: Y
//
ITEM_SMILES: C[C@H](Nc1ncnc2[nH]nnc12)c1nc2c(F)cccc2c(=O)n1-c1cnc(N)cn1
GROUP_LABEL: N

Request: Kindly determine if pIC50 recorded for `Nc1cnc(-n2c([C@@H](Nc3nc(N)nc(N)c3Cl)C3CC3)nc3cccc(Cl)c3c2=O)cn1` is above or exactly 6.
Response: N

Request: Kindly determine if pIC50 recorded for `C[C@H](Nc1nc(N)nc(C(F)F)c1C#N)c1nc2c(Cl)cc(F)cc2c(=O)n1-c1cnc(N)cn1` is above or exactly 6.
Response: N

Request: Kindly determine if pIC50 recorded for `C[C@H](Nc1nc(N)nc(N)c1C#N)c1nc2cccc(Cl)c2c(=O)n1-c1cnc(N)cn1` is above or exactly 6.
Response: Y

Request: Kindly determine if pIC50 recorded for `N#Cc1c(N)nc(N)nc1N[C@H](c1nc2c(Cl)ccc(Cl)c2c(=O)n1-c1cnc(N)cn1)C1CC1` is above or exactly 6.
Response: N

* * *

TESTED_TARGET: PI3Kδ (Homo sapiens (Human), UniProt O00329)
Sequence (O00329 whole entry, canonical isoform): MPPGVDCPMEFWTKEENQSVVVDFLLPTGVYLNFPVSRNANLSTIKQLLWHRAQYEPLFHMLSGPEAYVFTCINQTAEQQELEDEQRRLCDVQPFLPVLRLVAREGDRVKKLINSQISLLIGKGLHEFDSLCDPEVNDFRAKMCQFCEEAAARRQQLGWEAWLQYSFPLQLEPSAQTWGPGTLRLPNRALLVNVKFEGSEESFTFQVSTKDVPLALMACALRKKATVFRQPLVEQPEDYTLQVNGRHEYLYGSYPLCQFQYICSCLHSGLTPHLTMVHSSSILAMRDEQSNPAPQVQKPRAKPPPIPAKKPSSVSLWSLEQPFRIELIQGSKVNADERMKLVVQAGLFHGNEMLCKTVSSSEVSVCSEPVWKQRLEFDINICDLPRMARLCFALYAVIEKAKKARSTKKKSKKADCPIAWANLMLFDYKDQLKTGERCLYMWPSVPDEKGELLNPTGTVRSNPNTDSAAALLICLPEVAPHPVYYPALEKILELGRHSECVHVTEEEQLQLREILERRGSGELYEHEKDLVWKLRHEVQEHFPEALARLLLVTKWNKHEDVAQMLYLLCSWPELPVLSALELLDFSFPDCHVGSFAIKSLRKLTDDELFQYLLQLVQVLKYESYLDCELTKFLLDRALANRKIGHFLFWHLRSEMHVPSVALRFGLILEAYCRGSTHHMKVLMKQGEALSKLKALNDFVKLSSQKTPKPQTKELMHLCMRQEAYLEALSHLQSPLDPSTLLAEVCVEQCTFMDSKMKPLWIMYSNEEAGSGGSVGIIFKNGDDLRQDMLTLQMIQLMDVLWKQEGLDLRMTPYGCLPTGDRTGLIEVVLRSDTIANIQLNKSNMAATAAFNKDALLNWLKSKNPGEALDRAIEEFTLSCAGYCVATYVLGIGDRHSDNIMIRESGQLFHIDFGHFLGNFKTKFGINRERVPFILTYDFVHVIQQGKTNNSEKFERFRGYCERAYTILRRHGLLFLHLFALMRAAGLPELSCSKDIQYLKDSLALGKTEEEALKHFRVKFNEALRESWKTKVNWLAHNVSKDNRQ
Sequence (P27986 whole entry partner, canonical isoform): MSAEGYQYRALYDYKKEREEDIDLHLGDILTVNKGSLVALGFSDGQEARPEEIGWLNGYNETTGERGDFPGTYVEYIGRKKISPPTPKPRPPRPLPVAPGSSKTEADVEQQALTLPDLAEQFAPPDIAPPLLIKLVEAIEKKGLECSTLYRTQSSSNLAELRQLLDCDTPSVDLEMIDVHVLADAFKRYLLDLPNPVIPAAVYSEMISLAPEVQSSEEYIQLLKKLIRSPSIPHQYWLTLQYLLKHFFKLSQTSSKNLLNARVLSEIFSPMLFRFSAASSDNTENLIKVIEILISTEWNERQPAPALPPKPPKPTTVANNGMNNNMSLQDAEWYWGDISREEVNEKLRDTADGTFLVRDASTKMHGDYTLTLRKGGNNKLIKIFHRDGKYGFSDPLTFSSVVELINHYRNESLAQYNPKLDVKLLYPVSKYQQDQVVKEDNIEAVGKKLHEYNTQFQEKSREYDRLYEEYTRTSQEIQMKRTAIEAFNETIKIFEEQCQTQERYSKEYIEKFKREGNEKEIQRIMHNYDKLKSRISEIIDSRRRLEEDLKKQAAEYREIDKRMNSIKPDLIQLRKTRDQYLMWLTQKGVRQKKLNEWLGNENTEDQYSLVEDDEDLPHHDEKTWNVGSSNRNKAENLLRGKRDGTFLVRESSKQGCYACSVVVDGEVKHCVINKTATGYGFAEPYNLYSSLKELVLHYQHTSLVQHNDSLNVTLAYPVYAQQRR
TEST_SUMMARY: TR-FRET enzymatic assay of PI3K isoforms, PI3Kδ
EXPERIMENTAL_CONDITIONS: read-out: PI3Kδ IC50, 2×Km ATP, 30 minutes at 25° C.
VALUE_TYPE: pIC50
Numbers only, as −log10 of the molar value.

ITEM_SMILES: C[C@H](Nc1ncnc2[nH]nnc12)c1nc2c(F)cccc2c(=O)n1-c1cnc(N)cn1
pIC50: 5.57

ITEM_SMILES: C[C@H](Nc1nc(N)nc(N)c1Cl)c1nc2cccc(Cl)c2c(=O)n1-c1cnc(N)cn1
pIC50: 7.62

ITEM_SMILES: C[C@H](Nc1nc(N)nc(N)c1Cl)c1nc2c(Cl)ccc(Cl)c2c(=O)n1-c1cnc(N)cn1
pIC50: 7.51

ITEM_SMILES: C[C@H](Nc1nc(N)nc(N)c1C#N)c1nc2cccc(Cl)c2c(=O)n1-c1cnc(N)cn1
pIC50: 8.70

ITEM_SMILES: C[C@H](Nc1ncnc(N)c1C#N)c1nc2c(F)ccc(Cl)c2c(=O)n1-c1cnc(N)cn1
pIC50: 7.96

ITEM_SMILES: C[C@H](Nc1nc(N)nc(N)c1C#N)c1nc2c(F)cc(F)cc2c(=O)n1-c1cnc(N)cn1
pIC50: 7.28

ITEM_SMILES: C[C@H](Nc1ncnc2occc12)c1nc2c(F)ccc(Cl)c2c(=O)n1-c1cnc(N)cn1
pIC50: 5.64

ITEM_SMILES: C[C@H](Nc1nc(N)nc(N)c1C#N)c1nc2c(Cl)ccc(Cl)c2c(=O)n1-c1cnc(N)cn1
pIC50: 8.72

ITEM_SMILES: C[C@H](Nc1nc(N)nc(C(F)F)c1C#N)c1nc2c(Cl)cc(F)cc2c(=O)n1-c1cnc(N)cn1
pIC50: 6.47

ITEM_SMILES: C[C@H](Nc1nc(N)nc(N)c1C#N)c1nc2c(F)ccc(Cl)c2c(=O)n1-c1cnc(N)cn1
pIC50: 8.46

List reported pIC50 for each of these compounds:
1. Nc1cnc(-n2c([C@@H](Nc3nc(N)nc(N)c3Cl)C3CC3)nc3c(Cl)ccc(Cl)c3c2=O)cn1
2. N#Cc1c(N)nc(N)nc1N[C@H](c1nc2cccc(Cl)c2c(=O)n1-c1cnc(N)cn1)C1CC1
3. C[C@H](Nc1nc(N)nc(N)c1C#N)c1nc2c(Cl)cc(F)cc2c(=O)n1-c1cnc(N)cn1
4. Nc1cnc(-n2c([C@@H](Nc3nc(N)nc(N)c3Cl)C3CC3)nc3cccc(Cl)c3c2=O)cn1

Response:
1. 7.01
2. 8.57
3. 7.49
4. 7.62

Request: I am curious: what pIC50 value has been reported for `N#Cc1c(N)nc(N)nc1N[C@H](c1nc2c(Cl)ccc(Cl)c2c(=O)n1-c1cnc(N)cn1)C1CC1` ?
Response: 8.62

* * *

TESTED_TARGET: PI3Kγ (Homo sapiens (Human))
TEST_SUMMARY: TR-FRET enzymatic assay of PI3K isoforms, PI3Kγ
EXPERIMENTAL_CONDITIONS: 2×Km ATP, PI3Kγ at 2 nM, 30 minutes at 25° C.
Record form. Attribute: IC50. Fill in for each entry.

Illustrative cases are given below, each with its answer.
ITEM_SMILES: N#Cc1c(N)nc(N)nc1N[C@H](c1nc2cccc(Cl)c2c(=O)n1-c1cnc(N)cn1)C1CC1
IC50: 0.9 µM

ITEM_SMILES: C[C@H](Nc1nc(N)nc(N)c1Cl)c1nc2c(Cl)ccc(Cl)c2c(=O)n1-c1cnc(N)cn1
IC50: > 10 µM

ITEM_SMILES: Nc1cnc(-n2c([C@@H](Nc3ncnc(N)c3Cl)C3CC3)nc3cccc(Cl)c3c2=O)cn1
IC50: > 10 µM

List reported IC50 for each of these molecules:
1. C[C@H](Nc1nc(N)nc(N)c1Cl)c1nc2c(F)ccc(Cl)c2c(=O)n1-c1cnc(N)cn1
2. C[C@H](Nc1nc(N)nc(N)c1C#N)c1nc2c(Cl)ccc(Cl)c2c(=O)n1-c1cnc(N)cn1
3. C[C@H](Nc1ncnc(N)c1C#N)c1nc2c(F)ccc(Cl)c2c(=O)n1-c1cnc(N)cn1
4. C[C@H](Nc1ncnc2occc12)c1nc2c(F)ccc(Cl)c2c(=O)n1-c1cnc(N)cn1

Response:
> 10 µM
1.5 µM
> 10 µM
> 10 µM

* * *

TESTED_TARGET: PI3Kβ (Homo sapiens (Human))
TEST_SUMMARY: TR-FRET enzymatic assay of PI3K isoforms, PI3Kβ
EXPERIMENTAL_CONDITIONS: TR-FRET, 2×Km ATP, 30 minutes at 25° C.
VALUE_TYPE: IC50

ITEM_SMILES: C[C@H](Nc1nc(N)nc(N)c1C#N)c1nc2c(F)ccc(Cl)c2c(=O)n1-c1cnc(N)cn1
VALUE_TYPE: IC50
VALUE_REPORTED: 4.4 nM
//
ITEM_SMILES: C[C@H](Nc1nc(N)nc(N)c1C#N)c1nc2c(Cl)ccc(Cl)c2c(=O)n1-c1cnc(N)cn1
VALUE_TYPE: IC50
VALUE_REPORTED: 1.8 nM
//
ITEM_SMILES: C[C@H](Nc1nc(N)nc(N)c1C#N)c1nc2c(F)cc(F)cc2c(=O)n1-c1cnc(N)cn1
VALUE_TYPE: IC50
VALUE_REPORTED: 9.8 nM

List reported IC50 for each of these molecules:
1. C[C@H](Nc1nc(N)nc(C(F)F)c1C#N)c1nc2c(Cl)cc(F)cc2c(=O)n1-c1cnc(N)cn1
2. C[C@H](Nc1nc(N)nc(N)c1Cl)c1nc2c(Cl)ccc(Cl)c2c(=O)n1-c1cnc(N)cn1
3. N#Cc1c(N)nc(N)nc1N[C@H](c1nc2cccc(Cl)c2c(=O)n1-c1cnc(N)cn1)C1CC1

Response:
200 nM
170 nM
4.2 nM

* * *

TESTED_TARGET: PI3Kβ (Homo sapiens (Human), UniProt P42338)
Sequence (P42338 whole entry, one chain of several, canonical isoform): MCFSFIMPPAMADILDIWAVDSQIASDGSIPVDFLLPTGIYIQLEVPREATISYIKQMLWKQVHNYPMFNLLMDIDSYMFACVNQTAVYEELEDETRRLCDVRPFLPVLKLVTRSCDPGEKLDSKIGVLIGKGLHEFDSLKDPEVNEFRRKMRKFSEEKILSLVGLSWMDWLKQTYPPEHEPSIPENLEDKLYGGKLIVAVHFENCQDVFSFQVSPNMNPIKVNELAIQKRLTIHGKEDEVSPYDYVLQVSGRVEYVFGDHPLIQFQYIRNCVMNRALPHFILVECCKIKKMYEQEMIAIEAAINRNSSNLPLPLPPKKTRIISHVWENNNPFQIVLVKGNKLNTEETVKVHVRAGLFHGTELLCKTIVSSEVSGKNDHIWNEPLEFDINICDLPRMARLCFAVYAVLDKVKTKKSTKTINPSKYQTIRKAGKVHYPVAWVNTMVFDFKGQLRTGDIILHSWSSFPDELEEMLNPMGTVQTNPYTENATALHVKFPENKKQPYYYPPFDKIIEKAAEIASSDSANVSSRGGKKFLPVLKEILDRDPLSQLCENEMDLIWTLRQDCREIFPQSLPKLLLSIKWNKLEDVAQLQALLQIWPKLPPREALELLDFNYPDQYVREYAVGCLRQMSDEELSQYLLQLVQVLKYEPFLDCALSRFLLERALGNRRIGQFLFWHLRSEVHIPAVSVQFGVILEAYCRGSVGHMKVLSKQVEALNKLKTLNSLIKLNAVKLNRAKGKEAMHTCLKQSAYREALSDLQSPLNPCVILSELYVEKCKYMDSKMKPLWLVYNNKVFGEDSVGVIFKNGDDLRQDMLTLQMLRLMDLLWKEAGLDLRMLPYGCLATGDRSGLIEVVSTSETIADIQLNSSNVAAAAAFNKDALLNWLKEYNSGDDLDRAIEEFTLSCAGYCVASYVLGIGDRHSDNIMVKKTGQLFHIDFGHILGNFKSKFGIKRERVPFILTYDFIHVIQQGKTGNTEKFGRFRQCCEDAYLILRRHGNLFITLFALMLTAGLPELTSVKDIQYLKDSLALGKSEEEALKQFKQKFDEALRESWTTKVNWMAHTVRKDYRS
TEST_SUMMARY: TR-FRET enzymatic assay of PI3K isoforms, PI3Kβ
EXPERIMENTAL_CONDITIONS: TR-FRET, 2×Km ATP, 30 minutes at 25° C.
VALUE_TYPE: pIC50
Numbers only, as −log10 of the molar value.

Illustrative cases are given below, each with its answer.
ITEM_SMILES: C[C@H](Nc1ncnc2occc12)c1nc2c(F)ccc(Cl)c2c(=O)n1-c1cnc(N)cn1
pIC50: 5.24

ITEM_SMILES: C[C@H](Nc1nc(N)nc(N)c1C#N)c1nc2cccc(Cl)c2c(=O)n1-c1cnc(N)cn1
pIC50: 8.70

ITEM_SMILES: C[C@H](Nc1ncnc(N)c1C#N)c1nc2c(F)ccc(Cl)c2c(=O)n1-c1cnc(N)cn1
pIC50: 7.13

ITEM_SMILES: C[C@H](Nc1nc(N)nc(N)c1Cl)c1nc2c(F)ccc(Cl)c2c(=O)n1-c1cnc(N)cn1
pIC50: 7.27

ITEM_SMILES: C[C@H](Nc1nc(N)nc(N)c1Cl)c1nc2cccc(Cl)c2c(=O)n1-c1cnc(N)cn1
pIC50: 7.33

ITEM_SMILES: Nc1cnc(-n2c([C@@H](Nc3ncnc(N)c3Cl)C3CC3)nc3cccc(Cl)c3c2=O)cn1
pIC50: 6.14

List reported pIC50 for each of these molecules:
1. N#Cc1c(N)nc(N)nc1N[C@H](c1nc2c(Cl)ccc(Cl)c2c(=O)n1-c1cnc(N)cn1)C1CC1
2. Nc1cnc(-n2c([C@@H](Nc3nc(N)nc(N)c3Cl)C3CC3)nc3cccc(Cl)c3c2=O)cn1
3. Nc1cnc(-n2c([C@@H](Nc3nc(N)nc(N)c3Cl)C3CC3)nc3c(Cl)ccc(Cl)c3c2=O)cn1
4. C[C@H](Nc1nc(N)nc(N)c1C#N)c1nc2c(Cl)cc(F)cc2c(=O)n1-c1cnc(N)cn1

Response:
1: 8.44; 2: 6.72; 3: 5.92; 4: 7.85
